# assayOverview: total protein half-life in vivo (active degradation + dilution); higher = more stable protein
# experimentalConditions: wild type E. coli NCM3722; growth: C-lim chemostat; doubling time 6 h
Criterion: total protein half-life in vivo meeting or surpassing 5 h. Met: T. Not met: F.

residues	labelClass
MVKSQPILRYILRGIPAIAVAVLLSACSANNTAKNMHPETRAVGSETSSLQASQDEFENLVRNVDVKSRIMDQYADWKGVRYRLGGSTKKGIDCSGFVQRTFREQFGLELPRSTYEQQEMGKSVSRSNLRTGDLVLFRAGSTGRHVGIYIGNNQFVHASTSSGVIISSMNEPYWKKRYNEARRVLSRS [P0AFV4]	F
MKKLVLSLSLVLAFSSATAAFAAIPQNIRIGTDPTYAPFESKNSQGELVGFDIDLAKELCKRINTQCTFVENPLDALIPSLKAKKIDAIMSSLSITEKRQQEIAFTDKLYAADSRLVVAKNSDIQPTVESLKGKRVGVLQGTTQETFGNEHWAPKGIEIVSYQGQDNIYSDLTAGRIDAAFQDEVAASEGFLKQPVGKDYKFGGPSVKDEKLFGVGTGMGLRKEDNELREALNKAFAEMRADGTYEKLAKKYFDFDVYGG [P0AEU0]	T
MLIFEGKEIETDTEGYLKESSQWSEPLAVVIAENEGISLSPEHWEVVRFVRDFYLEFNTSPAIRMLVKAMANKFGEEKGNSRYLYRLFPKGPAKQATKIAGLPKPVKCI [P0AB18]	T
MSEQLVTPENVTTKDGKINLLDLNRQQMREFFKDLGEKPFRADQVMKWMYHYCCDNFDEMTDINKVLRGKLKEVAEIRAPEVVEEQRSSDGTIKWAIAVGDQRVETVYIPEDDRATLCVSSQVGCALECKFCSTAQQGFNRNLRVSEIIGQVWRAAKIVGAAKVTGQRPITNVVMMGMGEPLLNLNNVVPAMEIMLDDFGFGLSKRRVTLSTSGVVPALDKLGDMIDVALAISLHAPNDEIRDEIVPINKKYNIETFLAAVRRYLEKSNANQGRVTIEYVMLDHVNDGTEHAHQLAELLKDTPCKINLIPWNPFPGAPYGRSSNSRIDRFSKVLMSYGFTTIVRKTRGDDIDAACGQLAGDVIDRTKRTLRKRMQGEAIDIKAV	F

---

# assayOverview: total protein half-life in vivo (active degradation + dilution); higher = more stable protein
# experimentalConditions: E. coli NCM3722 delta-clpP delta-lon delta-hslV; growth: N-lim chemostat; doubling time 6 h
Criterion: total protein half-life in vivo meeting or surpassing 6 h. Met: TRUE. Not met: FALSE.

residues	labelClass
MKVLVTGATSGLGRNAVEFLCQKGISVRATGRNEAMGKLLEKMGAEFVPADLTELVSSQAKVMLAGIDTLWHCSSFTSPWGTQQAFDLANVRATRRLGEWAVAWGVRNFIHISSPSLYFDYHHHRDIKEDFRPHRFANEFARSKAASEEVINMLSQANPQTRFTILRPQSLFGPHDKVFIPRLAHMMHHYGSILLPHGGSALVDMTYYENAVHAMWLASQEACDKLPSGRVYNITNGEHRTLRSIVQKLIDELNIDCRIRSVPYPMLDMIARSMERLGRKSAKEPPLTHYGVSKLNFDFTLDITRAQEELGYQPVITLDEGIEKTAAWLRDHGKLPR	TRUE
MHVTLVEINVHEDKVDEFIEVFRQNHLGSVQEEGNLRFDVLQDPEVNSRFYIYEAYKDEDAVAFHKTTPHYKTCVAKLESLMTGPRKKRLFNGLMP	FALSE
MTQPVLDIQQLHLSFPGFNGDVHALNNVSLQINRGEIVGLVGESGSGKSVTAMLIMRLLPTGSYCVHRGQISLLGEDVLNAREKQLRQWRGARVAMIFQEPMTALNPTRRIGLQMMDVIRHHQPISRREARAKAIDLLEEMQIPDAVEVMSRYPFELSGGMRQRVMIALAFSCEPQLIIADEPTTALDVTVQLQVLRLLKHKARASGTAVLFISHDMAVVSQLCDSVYVMYAGSVIESGVTADVIHHPRHPYTIGLLQCAPEHGVPRQLLPAIPGTVPNLTHLPDGCAFRDRCYAAGAQCENVPALTACGDNNQRCACWYPQQEVISV	TRUE
MKTSRLPIAIQQAVMRRLREKLAQANLKLGRNYPEPKLSYTQRGTSAGTAWLESYEIRLNPVLLLENSEAFIEEVVPHELAHLLVWKHFGRVAPHGKEWKWMMENVLGVPARRTHQFELQSVRRNTFPYRCKCQEHQLTVRRHNRVVRGEAVYRCVHCGEQLVAK	FALSE
MLKLLKTIMRAGTATVKYPFAPLEVSPGFRGKPDLMPSQCIACGACACACPANALTIQTDDQQNSRTWQLYLGRCIYCGRCEEVCPTRAIQLTNNFELTVTNKADLYTRATFHLQRCSRCERPFAPQKTIALAAELLAQQQNAPQNREMLWAQASVCPECKQRATLINDDTDVLLVAKEQL	FALSE
MDLSLLKALSEADAIASSEQEVRQILLEEADRLQKEVRFDGLGSVLIRLNESTGPKVMICAHMDEVGFMVRSISREGAIDVLPVGNVRMAARQLQPVRITTREECKIPGLLDGDRQGNDVSAMRVDIGARSYDEVMQAGIRPGDRVTFDTTFQVLPHQRVMGKAFDDRLGCYLLVTLLRELHDAELPAEVWLVASSSEEVGLRGGQTATRAVSPDVAIVLDTACWAKNFDYGAANHRQIGNGPMLVLSDKSLIAPPKLTAWVETVAAEIGVPLQADMFSNGGTDGGAVHLTGTGVPTVVMGPATRHGHCAASIADCRDILQMQQLLSALIQRLTRETVVQLTDFR	FALSE

---

# assayOverview: total protein half-life in vivo (active degradation + dilution); higher = more stable protein
# experimentalConditions: E. coli NCM3722 delta-clpP; growth: N-lim chemostat; doubling time 6 h

residues	unitTag	resultOperator	total protein half-life in vivo
MKNKLPPFIEIYRALIATPSISATEEALDQSNADLITLLADWFKDLGFNVEVQPVPGTRNKFNMLASIGQGAGGLLLAGHTDTVPFDDGRWTRDPFTLTEHDGKLYGLGTADMKGFFAFILDALRDVDVTKLKKPLYILATADEETSMAGARYFAETTALRPDCAIIGEPTSLQPVRAHKGHISNAIRIQGQSGHSSDPARGVNAIELMHDAIGHILQLRDNLKERYHYEAFTVPYPTLNLGHIHGGDASNRICACCELHMDIRPLPGMTLNELNGLLNDALAPVSERWPGRLTVDELHPPIPGYECPPNHQLVEVVEKLLGAKTEVVNYCTEAPFIQTLCPTLVLGPGSINQAHQPDEYLETRFIKPTRELITQVIHHFCWH	h	=	4.73
MKKTLLAAGAVLALSSSFTVNAAENDKPQYLSDWWHQSVNVVGSYHTRFGPQIRNDTYLEYEAFAKKDWFDFYGYADAPVFFGGNSDAKGIWNHGSPLFMEIEPRFSIDKLTNTDLSFGPFKEWYFANNYIYDMGRNKDGRQSTWYMGLGTDIDTGLPMSLSMNVYAKYQWQNYGAANENEWDGYRFKIKYFVPITDLWGGQLSYIGFTNFDWGSDLGDDSGNAINGIKTRTNNSIASSHILALNYDHWHYSVVARYWHDGGQWNDDAELNFGNGNFNVRSTGWGGYLVVGYNF [P0A927]	h	>	8
MQASQFSAQVLDWYDKYGRKTLPWQIDKTPYKVWLSEVMLQQTQVATVIPYFERFMARFPTVTDLANAPLDEVLHLWTGLGYYARARNLHKAAQQVATLHGGKFPETFEEVAALPGVGRSTAGAILSLSLGKHFPILDGNVKRVLARCYAVSGWPGKKEVENKLWSLSEQVTPAVGVERFNQAMMDLGAMICTRSKPKCSLCPLQNGCIAAANNSWALYPGKKPKQTLPERTGYFLLLQHEDEVLLAQRPPSGLWGGLYCFPQFADEESLRQWLAQRQIAADNLTQLTAFRHTFSHFHLDIVPMWLPVSSFTGCMDEGNALWYNLAQPPSVGLAAPVERLLQQLRTGAPV	h	=	5.73
MAIILGIDPGSRVTGYGVIRQVGRQLSYLGSGCIRTKVDDLPSRLKLIYAGVTEIITQFQPDYFAIEQVFMAKNADSALKLGQARGVAIVAAVNQELPVFEYAARQVKQTVVGIGSAEKSQVQHMVRTLLKLPANPQADAADALAIAITHCHVSQNAMQMSESRLNLARGRLR [P0A814]	h	=	3.57
MGRILLDLSNEVIKQLDDLEVQRNLPRADLLREAVDQYLINQSQTARTSVPGIWQGCEEDGVEYQRKLREEW [P0AFU6]	h	=	6.89

---

Item-by-item account of total protein half-life in vivo
# assayOverview: total protein half-life in vivo (active degradation + dilution); higher = more stable protein
# experimentalConditions: E. coli NCM3722 delta-clpP delta-lon delta-hslV; growth: N-lim chemostat; doubling time 6 h

residues	total protein half-life in vivo, h
MSLVCSVIFIHHAFNANILDKDYAFSDGEILMVDNAVRTHFEPYERHFKEIGFTENTIKKYLQCTNIQTVTVPVPAKFLRASNVPTGLLNEMIAYLNSEERNHHNFSELLLFSCLSIFAACKGFITLLTNGVLSVSGKVRNIVNMKPAHPWKLKDICDCLYISESLLKKKLKQEQTTFSQILLDARMQHAKNLIRVEGSVNKIAEQCGYASTSYFIYAFRKHFGNSPKRVSKEYRCQSHTGMNTGNTMNALAI	4.92
MAHIVTLNTPSREDWLTQLADVVTDPDELLRLLNIDAEEKLLAGRSAKKLFALRVPRSFIDRMEKGNPDDPLLRQVLTSQDEFVIAPGFSTDPLEEQHSVVPGLLHKYHNRALLLVKGGCAVNCRYCFRRHFPYAENQGNKRNWQTALEYVAAHPELDEMIFSGGDPLMAKDHELDWLLTQLEAIPHIKRLRIHSRLPIVIPARITEALVECFARSTLQILLVNHINHANEVDETFRQAMAKLRRVGVTLLNQSVLLRDVNDNAQTLANLSNALFDAGVMPYYLHVLDKVQGAAHFMVSDDEARQIMRELLTLVSGYLVPKLAREIGGEPSKTPLDLQLRQQ	5.05
MNHSLKPWNTFGIDHNAQHIVCAEDEQQLLNAWQYATAEGQPVLILGEGSNVLFLEDYRGTVIINRIKGIEIHDEPDAWYLHVGAGENWHRLVKYTLQEGMPGLENLALIPGCVGSSPIQNIGAYGVELQRVCAYVDSVELATGKQVRLTAKECRFGYRDSIFKHEYQDRFAIVAVGLRLPKEWQPVLTYGDLTRLDPTTVTPQQVFNAVCHMRTTKLPDPKVNGNAGSFFKNPVVSAETAKALLSQFPTAPNYPQADGSVKLAAGWLIDQCQLKGMQIGGAAVHRQQALVLINEDNAKSEDVVQLAHHVRQKVGEKFNVWLEPEVRFIGASGEVSAVETIS	4.93
MRVLLAPMEGVLDSLVRELLTEVNDYDLCITEFVRVVDQLLPVKVFHRICPELQNASRTPSGTLVRVQLLGQFPQWLAENAARAVELGSWGVDLNCGCPSKTVNGSGGGATLLKDPELIYQGAKAMREAVPAHLPVSVKVRLGWDSGEKKFEIADAVQQAGATELVVHGRTKEQGYRAEHIDWQAIGDIRQRLNIPVIANGEIWDWQSAQQCMAISGCDAVMIGRGALNIPNLSRVVKYNEPRMPWPEVVALLQKYTRLEKQGDTGLYHVARIKQWLSYLRKEYDEATELFQHVRVLNNSPDIARAIQAIDIEKL	5.15
MKKLQIAVGIIRNENNEIFITRRAADAHMANKLEFPGGKIEMGETPEQAVVRELQEEVGITPQHFSLFEKLEYEFPDRHITLWFWLVERWEGEPWGKEGQPGEWMSLVGLNADDFPPANEPVIAKLKRL	4.64
MTKLKLLALGVLIATSAGVAHAEGKFSLGAGVGVVEHPYKDYDTDVYPVPVINYEGDNFWFRGLGGGYYLWNDATDKLSITAYWSPLYFKAKDSGDHQMRHLDDRKSTMMAGLSYAHFTQYGYLRTTLAGDTLDNSNGIVWDMAWLYRYTNGGLTVTPGIGVQWNSENQNEYYYGVSRKESARSGLRGYNPNDSWSPYLELSASYNFLGDWSVYGTARYTRLSDEVTDSPMVDKSWTGLISTGITYKF [P0A908]	6.14
